Record form. Attribute: IC50. Fill in for each entry.
# Tested target: PRKACA-DNAJB1 (Homo sapiens)
# Construct: DNAJB1 (fusion partner, P25685); the other entry of the earlier key: DNAJB1 (P25685, DnaJ homolog subfamily B member 1)
# Procedure text: PRKACA-DNAJB1 enzyme assay (EZ Reader 2 electrophoretic mobility shift)
# Reported conditions: read-out: Enz PRKACA-DNAJB1 IC50

Query IC50 for Cc1c[nH]c2nccc(-c3ccc(C(=O)N[C@@H]4c5c(ccc(F)c5F)O[C@H](C)[C@@H]4O)cn3)c12 [Compound 161] ≤ 1 nM

Query IC50 for O=C(N[C@H]1C[C@@H](O)c2cccc(F)c21)c1ccc(-c2ccnc3[nH]ccc23)nc1 (single isomer, unassigned) [Compound 119] 1.01 to 5 nM

Query IC50 for Cc1c[nH]c2nccc(-c3ccc(C(=O)N[C@@H]4c5ccccc5C[C@H]4N4CCCC4)cn3)c12 [Compound 152] 1.01 to 5 nM

Query IC50 for O=C(N[C@@H]1c2c(F)cccc2OC[C@@H]1O)c1ccc(-c2ccnc3[nH]ccc23)nc1 [Compound 126] 1.01 to 5 nM

Query IC50 for C[C@@H]1C[C@H](NC(=O)c2ccc(-c3ccnc4[nH]ccc34)cc2)c2ccccc2O1 [Compound 109] ≤ 1 nM

Query IC50 for O=C(N[C@@H]1c2c(F)cc(C(F)F)cc2C[C@@H]1O)c1ccc(-c2ccnc3[nH]ccc23)nc1 [Compound 154] ≤ 1 nM

Query IC50 for O=C(N[C@H]1CCOc2ccccc21)c1ccc(-c2ccnc3[nH]ccc23)cc1 [Compound 103] ≤ 1 nM

Query IC50 for O=C(N[C@H]1CCOc2ccc(F)cc21)c1ccc(-c2ccnc3[nH]ccc23)cc1 [Compound 114] ≤ 1 nM

Query IC50 for O=C(N[C@H]1CCOc2ccc(F)c(F)c21)c1ccc(-c2ccnc3[nH]ccc23)cc1 [Compound 129] ≤ 1 nM

Query IC50 for Cc1c[nH]c2nccc(-c3ccc(C(=O)N[C@@H]4c5c(F)cccc5OC[C@@H]4O)cn3)c12 [Compound 135] ≤ 1 nM

Query IC50 for O=C(N[C@@H]1c2ccccc2C[C@H]1F)c1ccc(-c2ccnc3[nH]ccc23)cc1 [Compound 104] ≤ 1 nM

Query IC50 for O=C(N[C@@H]1c2ccccc2C[C@H]1O)c1ccc(-c2ccnc3[nH]ccc23)cc1 [Compound 102] ≤ 1 nM

Query IC50 for O=C(N[C@@H]1c2c(F)cccc2C[C@H]1N1CCCC1)c1ccc(-c2ccnc3[nH]ccc23)nc1 [Compound 157] ≤ 1 nM

Query IC50 for CN(C)C(=O)[C@@H]1CCCN1[C@@H]1Cc2cccc(Cl)c2[C@H]1NC(=O)c1ccc(-c2ccnc3[nH]ccc23)nc1 [Compound 191] ≤ 1 nM

Query IC50 for Cc1c[nH]c2nccc(-c3ccc(C(=O)N[C@H]4CCOc5cccc(F)c54)cn3)c12 [Compound 121] 1.01 to 5 nM

* * *

The compounds below have reported IC50 for PRKACA (Homo sapiens, UniProt P17612).

Query IC50 for O=C(N[C@@H]1c2ccccc2C[C@H]1O)c1ccc(-c2ccnc3[nH]cc(F)c23)cc1 [Compound 111] ≤ 1 nM

Query IC50 for O=C(N[C@@H]1c2ccccc2C[C@@H]1O)c1ccc(-c2ccnc3[nH]ccc23)cc1 [Compound 101] ≤ 1 nM

Query IC50 for CCN(CC)[C@@H]1Cc2ccccc2[C@H]1NC(=O)c1ccc(-c2ccnc3[nH]ccc23)nc1 [Compound 147] 1.01 to 5 nM

Query IC50 for O=C(N[C@H]1c2c(ccc(F)c2F)OC[C@H]1O)c1ccc(-c2ccnc3[nH]ccc23)nc1 (stereo in doubt) [Compound 140] ≤ 1 nM

Query IC50 for Cc1c[nH]c2nccc(-c3ccc(C(=O)N[C@@H]4c5c(F)cc(C(F)F)cc5C[C@@H]4O)cn3)c12 [Compound 162] ≤ 1 nM

Query IC50 for CN(C)C(=O)[C@H]1N([C@@H]2Cc3cccc(Cl)c3[C@H]2NC(=O)c2ccc(-c3ccnc4[nH]ccc34)cn2)CC1(C)C [Compound 193] ≤ 1 nM

Query IC50 for Cc1c[nH]c2nccc(-c3ccc(C(=O)N[C@@H]4c5c(ccc(F)c5F)C[C@H]4N4CCCC4)cn3)c12 [Compound 175] ≤ 1 nM
